System name: Tyrosine-protein phosphatase non-receptor type 1 (Homo sapiens)
Sequence (P18031 whole entry): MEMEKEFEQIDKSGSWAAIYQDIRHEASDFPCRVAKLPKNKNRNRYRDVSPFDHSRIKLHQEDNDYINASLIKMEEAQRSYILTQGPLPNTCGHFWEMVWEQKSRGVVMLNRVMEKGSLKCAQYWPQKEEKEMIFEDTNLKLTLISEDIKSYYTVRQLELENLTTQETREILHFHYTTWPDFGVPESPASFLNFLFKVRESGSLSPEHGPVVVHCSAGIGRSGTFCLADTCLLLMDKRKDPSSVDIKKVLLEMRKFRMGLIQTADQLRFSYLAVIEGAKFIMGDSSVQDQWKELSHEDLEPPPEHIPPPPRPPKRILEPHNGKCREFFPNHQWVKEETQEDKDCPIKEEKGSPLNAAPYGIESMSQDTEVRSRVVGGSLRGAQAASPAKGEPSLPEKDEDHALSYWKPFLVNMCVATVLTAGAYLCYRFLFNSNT
Reported endpoint: pIC50
Hey, just a heads up that pIC50 is the negative log base 10 of the concentration in molar.

Compound	Reported endpoint	Measured number
CCCCCc1cc(O)cc(O)c1Oc1cc(OC)cc2c1C(=O)OC2(CCCC)OC (centres undefined)	pIC50	5.16

Note to self: pIC50 recorded for COC(=O)c1c(C)cc(OC(=O)c2c(C)cc(O)c(C=O)c2O)c(C)c1O [ATRANORIN] was 4.20
